test system: normal NK cells expanded with K562-aAPC; experiment: percent inhibition of viability; higher = more inhibition; conditions: 72 h; IL-2 2.5 ng/mL; 1000 nM
Rule: measured percent inhibition of viability below 30% gets true; anything equal to or greater than 30% gets false.

- compound: "CCn1c(=O)c(-c2cc[nH]n2)cc2c(C)nc(N)nc21 [Voxtalisib] (max concentration tested 10000 nM)"
  assigned.class: "false"
- compound: "Nc1nc2[nH]cnc2c(=S)[nH]1 [Thioguanine] (max concentration tested 10000 nM)"
  assigned.class: "true"
- compound: "C=CCNC1=C2C[C@@H](C)C[C@H](OC)[C@H](O)[C@@H](C)/C=C(\\C)[C@H](OC(N)=O)[C@@H](OC)/C=C\\C=C(/C)C(=O)NC(=CC1=O)C2=O [Tanespimycin] (max concentration tested 10000 nM)"
  assigned.class: "false"
- compound: "COc1cccc2c1C(=O)c1c(O)c3c(c(O)c1C2=O)C[C@@](O)(C(=O)CO)C[C@@H]3O[C@H]1C[C@H](N)[C@H](O)[C@H](C)O1 [Doxorubicin] (max concentration tested 1000 nM)"
  assigned.class: "false"
- compound: "O=C(Cc1ccc(-c2ccc(OCCN3CCOCC3)cc2)cn1)NCc1ccccc1 [KX2-391] (max concentration tested 10000 nM)"
  assigned.class: "false"
- compound: "Nc1ncn([C@H]2C[C@H](O)[C@@H](CO)O2)c(=O)n1 [Decitabine] (max concentration tested 10000 nM)"
  assigned.class: "true"

---

tested on: normal NK cells expanded with K562-aAPC; assay: percent inhibition of viability; higher = more inhibition; settings: 72 h; IL-2 2.5 ng/mL; 10000 nM
endpoint.name: percent inhibition of viability (%)

- compound: "Nc1nc(F)nc2c1ncn2[C@@H]1O[C@H](CO)[C@@H](O)[C@@H]1O [Fludarabine] (max concentration tested 10000 nM)"
  endpoint.name: "percent inhibition of viability"
  experimental.result: 100
- compound: "C=CCc1cccc(/C=N/NC(=O)CN2CCN(Cc3ccccc3)CC2)c1O [PAC-1] (max concentration tested 10000 nM)"
  endpoint.name: "percent inhibition of viability"
  experimental.result: 96.8
- compound: "CS(=O)(=O)c1ccc(-c2cnc(N)c(C(=O)Nc3ccccc3)n2)cc1 [VE-821] (max concentration tested 10000 nM)"
  endpoint.name: "percent inhibition of viability"
  experimental.result: 32.8
- compound: "CN1CCN(c2ccc3nc(-c4c(N)c5c(F)cccc5[nH]c4=O)[nH]c3c2)CC1 [Dovitinib] (max concentration tested 10000 nM)"
  endpoint.name: "percent inhibition of viability"
  experimental.result: 3.96
- compound: "CC(C)(C)c1cnc(CSc2cnc(NC(=O)C3CCNCC3)s2)o1 [SNS-032] (max concentration tested 10000 nM)"
  endpoint.name: "percent inhibition of viability"
  experimental.result: 100
- compound: "COc1ccc(C2=N[C@@H](c3ccc(Cl)cc3)[C@@H](c3ccc(Cl)cc3)N2C(=O)N2CCNC(=O)C2)c(OC(C)C)c1 [Nutlin-3] (max concentration tested 10000 nM)"
  endpoint.name: "percent inhibition of viability"
  experimental.result: 99.2
- compound: "CC(C)[C@H]1C(=O)N[C@@H](CCCNC(=N)N)C(=O)NCC(=O)N[C@@H](CC(=O)O)C(=O)N[C@H](Cc2ccccc2)C(=O)N1C [Cilengitide] (max concentration tested 10000 nM)"
  endpoint.name: "percent inhibition of viability"
  experimental.result: -11.3
- compound: "Nc1nc2[nH]cc(CCc3ccc(C(=O)N[C@@H](CCC(=O)O)C(=O)O)cc3)c2c(=O)[nH]1 [Pemetrexed] (max concentration tested 10000 nM)"
  endpoint.name: "percent inhibition of viability"
  experimental.result: 32.7
- compound: "CC[C@H](Nc1ncnc2[nH]cnc12)c1nc2cccc(F)c2c(=O)n1-c1ccccc1 [Idelalisib] (max concentration tested 10000 nM)"
  endpoint.name: "percent inhibition of viability"
  experimental.result: 38.7
- compound: "CNC(=O)c1cc(Oc2ccc(NC(=O)Nc3ccc(Cl)c(C(F)(F)F)c3)c(F)c2)ccn1 [Regorafenib] (max concentration tested 10000 nM)"
  endpoint.name: "percent inhibition of viability"
  experimental.result: 19.1
- compound: "C=C1C[C@@H]2[C@H](CC[C@]3(C)C(=O)CC[C@@H]23)[C@@]2(C)C=CC(=O)C=C12 [Exemestane] (max concentration tested 10000 nM)"
  endpoint.name: "percent inhibition of viability"
  experimental.result: 35.6
- compound: "N#CC[C@H](C1CCCC1)n1cc(-c2ncnc3[nH]ccc23)cn1 [Ruxolitinib] (max concentration tested 10000 nM)"
  endpoint.name: "percent inhibition of viability"
  experimental.result: 98.6
- compound: "C[C@@]1(C(=O)Nc2ccc(F)nc2)CCCN1c1nc(Nc2cc(C3CC3)n[nH]2)c2cccn2n1 (max concentration tested 10000 nM)"
  endpoint.name: "percent inhibition of viability"
  experimental.result: 42.2

Origin of the recorded values: the supplement of paper PMC5908809
